# experimental_system: human serum albumin (human) (UniProt P02768)
# Sequence (P02768 25-609 limits assumed): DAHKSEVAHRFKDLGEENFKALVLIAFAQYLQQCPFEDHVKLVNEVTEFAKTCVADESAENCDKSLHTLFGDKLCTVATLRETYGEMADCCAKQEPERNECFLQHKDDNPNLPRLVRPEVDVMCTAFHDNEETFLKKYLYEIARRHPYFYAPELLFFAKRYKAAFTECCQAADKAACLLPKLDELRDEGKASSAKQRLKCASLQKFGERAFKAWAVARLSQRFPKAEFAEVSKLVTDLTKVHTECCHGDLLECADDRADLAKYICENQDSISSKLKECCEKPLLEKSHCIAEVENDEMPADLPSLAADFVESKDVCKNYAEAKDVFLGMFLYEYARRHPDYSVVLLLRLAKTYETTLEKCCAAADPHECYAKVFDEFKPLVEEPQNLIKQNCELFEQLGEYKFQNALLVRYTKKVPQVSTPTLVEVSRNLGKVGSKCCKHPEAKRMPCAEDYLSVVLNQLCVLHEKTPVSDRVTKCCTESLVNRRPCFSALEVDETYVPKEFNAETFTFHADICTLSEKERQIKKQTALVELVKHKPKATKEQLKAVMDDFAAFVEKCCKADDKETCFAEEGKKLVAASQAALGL
# protocol_details: screening ELISA
Tick Condition met if HSA is 4000 or greater. Tick Condition not met if HSA is less than 4000.

IN: Form field: HSA at least 4000? Entry: SEQ ID NO 160 (designed binder) MLPAPKNLVVSRVTEDSARLSWTAPDAAFDSFNIAYGEWRQHGEAIVLTVPGSERSYDLTGLKPGTEYDVFIDGVKGGNLSWPLSAIFTT
OUT: Condition not met

IN: Form field: HSA at least 4000? Entry: SEQ ID NO 37 (designed binder) MLPAPKNLVVSRVTEDSARLSWTAPDAAFDSFHIIYTEEEKEGEAIYLRVPGSERSYDLTGLKPGTEYLVEIEGVKGGKRSVPLNASFTT
OUT: Condition not met

IN: Form field: HSA at least 4000? Entry: SEQ ID NO 268 (designed binder) MLPAPKNLVVSRVTEDSARLSWTAPDAAFDSFTIVYGEAGAFGEAIVLTVPGSERSYDLTGLKPGTEYDVLIEGVKGGNLSWPLSAIFTT
OUT: Condition not met

IN: Form field: HSA at least 4000? Entry: SEQ ID NO 39 (designed binder) MLPAPKNLVVSRVTEDSARLSWTAPDAAFDSFDIDYREWWTLGEAIVLTVPGSERSYDLTGLKPGTEYYVNIQGVKGGLRSYPLSAIFTT
OUT: Condition met

IN: Form field: HSA at least 4000? Entry: SEQ ID NO 121 (designed binder) MLPAPKNLVVSRVTEDSARLSWTAPDAAFDSFSIDYPEFPVRGEAIVLTVPGSERSYDLTGPKPGTEYNVTIQGVKGGFPSMPLSAIFTT
OUT: Condition met

IN: Form field: HSA at least 4000? Entry: SEQ ID NO 154 (designed binder) MLPAPKNLVVSRVTEDSARLSWTAPDAAFDSFFIPYAEPRPDGEAIVLTVPGSERSYDLTGLKPGTEYSVLIHGVKGGLLSSPLSAIFTT
OUT: Condition met
